# Test details: Lipophilicity, log D of compound
# Format: physicochemical
# Assay setup: octanol/water
# logD values compiled below
Assay metric: logD

C=CC(=O)N1CCN2c3c(cnc4cc(-c5c(O)cccc5F)c(Cl)cc34)N(C)C(=O)[C@H]2C1: 3
C=CC(=O)N1CCN2c3c(cnc4cc(-c5c(O)cccc5F)c(Cl)cc34)NC(=O)[C@H]2C1: 3

----------
# Test details: Efflux ratio in human Caco2 cells
# Type: ADME, cell-based
# Assay setup: Caco-2
Assay metric: efflux ratio

C=CC(=O)N1CCN2c3c(cnc4cc(-c5c(O)cccc5F)c(Cl)cc34)N(C)C(=O)[C@H]2C1: 0.9
